Target or system Peptidyl-prolyl cis-trans isomerase FKBP1A (Homo sapiens); metric pKd; compiled from varied reports.
pKd: −log10 of the molar value.

Chemical Smiles: COc1ccc(/C=C/C(=O)N(C)[C@@H](C)C(=O)OCc2ccccc2)cc1
pKd: < 3.82
//
Chemical Smiles: CO[C@@H]1C[C@H](C[C@@H](C)[C@@H]2CC(=O)[C@H](C)/C=C(\C)[C@@H](O)[C@@H](OC)C(=O)[C@H](C)C[C@H](C)/C=C/C=C/C=C(\C)[C@@H](OC3CC3)C[C@@H]3CC[C@@H](C)[C@@](O)(O3)C(=O)C(=O)N3CCCC[C@H]3C(=O)O2)CC[C@H]1OCCCS(C)(=O)=O
pKd: 9.00 to 9.52
//
Chemical Smiles: COC(=O)C(=O)N(C)[C@H](C(=O)OCc1ccccc1)C(C)C
pKd: < 3.70
//
Chemical Smiles: O=C(OCCCc1cccnc1)[C@@H]1CCCN1S(=O)(=O)Nc1ccccc1
pKd: 4.85
//
Chemical Smiles: CO[C@@H]1C[C@H](C[C@@H](C)[C@@H]2CC[C@H](C)/C=C(\C)[C@@H](O)[C@@H](OC)C(=O)[C@H](C)C[C@H](C)/C=C/C=C/C=C(\C)[C@H](NS(C)(=O)=O)C[C@@H]3CC[C@@H](C)[C@@](O)(O3)C(=O)C(=O)N3CCCC[C@H]3C(=O)O2)CC[C@H]1O
pKd: 10.21
//
Chemical Smiles: COc1ccc(/C=C/C(=O)N(C)[C@H](C(=O)OCc2ccccc2)C(C)C)cc1
pKd: < 4.70

----------
Target or system Peptidyl-prolyl cis-trans isomerase FKBP1A (Homo sapiens, UniProt P62942); metric Kd; compiled from varied reports.

Compound: CO[C@@H]1C[C@H](C[C@@H](C)[C@@H]2CC(=O)[C@H](C)/C=C(\C)[C@@H](O)[C@@H](OC)C(=O)[C@H](C)C[C@H](C)/C=C/C=C/C=C(\C)C(N3CCCS3(=O)=O)C[C@@H]3CC[C@@H](C)[C@@](O)(O3)C(=O)C(=O)N3CCCC[C@H]3C(=O)O2)CC[C@H]1O (stereo partly shown)
Comparison Sign: =
Kd [nM]: 6.4
--
Compound: CO[C@@H]1C[C@H](C[C@@H](C)[C@@H]2CC[C@H](C)/C=C(\C)[C@@H](O)[C@@H](OC)C(=O)[C@H](C)C[C@H](C)/C=C/C=C/C=C(\C)[C@H](NS(=O)(=O)C3CC3)C[C@@H]3CC[C@@H](C)[C@@](O)(O3)C(=O)C(=O)N3CCCC[C@H]3C(=O)O2)CC[C@H]1O
Comparison Sign: =
Kd [nM]: 0.39
--
Compound: COCCOCCOC1CC2CCC(C)C(O)(O2)C(=O)C(=O)N2CCCCC2C(=O)OC(C(C)CC2CCC(OCCCS(C)(=O)=O)C(OC)C2)CC(=O)C(C)C=C(C)C(O)C(OC)C(=O)C(C)CC(C)C=CC=CC=C1C (mixture of isomers)
Comparison Sign: <
Kd [nM]: 0.3

----------
Target or system Peptidyl-prolyl cis-trans isomerase FKBP1A (Homo sapiens, UniProt P62942); metric Kd; compiled from varied reports.

Compound: CO[C@@H]1C[C@H](C[C@@H](C)[C@@H]2CC[C@H](C)/C=C(\C)[C@@H](O)[C@@H](OC)C(=O)[C@H](C)C[C@H](C)/C=C/C=C/C=C(\C)[C@H](N3CCCS3(=O)=O)C[C@@H]3CC[C@@H](C)[C@@](O)(O3)C(=O)C(=O)N3CCCC[C@H]3C(=O)O2)CC[C@H]1OCCO
Kd: 35 nM
//
Compound: CO[C@@H]1C[C@H](C[C@@H](C)[C@@H]2CC(=O)[C@H](C)/C=C(\C)[C@@H](O)[C@@H](OC)C(=O)[C@H](C)C[C@H](C)/C=C/C=C/C=C(\C)[C@@H](NS(=O)(=O)CC3CCCC3)C[C@@H]3CC[C@@H](C)[C@@](O)(O3)C(=O)C(=O)N3CCCC[C@H]3C(=O)O2)CC[C@H]1O
Kd: < 0.3 nM
//
Compound: C=CCOC(=O)[C@@H]1CCCCN1C(=O)C(=O)OC
Kd: > 25000 nM
//
Compound: CCOC(=O)CS(=O)(=O)NC1C[C@H]2CC[C@H](C)[C@](O)(O2)C(=O)C(=O)N(C)C(C)C(=O)OC([C@H](C)C[C@@H]2CC[C@@H](OC3CC3)[C@H](OC)C2)CC(=O)C(C)/C=C(\C)C(O)C(OC)C(=O)C(C)CC/C=C/C=C/C=C/1C (stereo partly shown)
Kd: 0.3 to 1 nM
